Record form. Attribute: Kd. Fill in for each entry.
- Subject Of Test: CRBN truncate (318-426) (Homo sapiens (Human), UniProt Q96SW2)
- Sequence (Q96SW2 318-426): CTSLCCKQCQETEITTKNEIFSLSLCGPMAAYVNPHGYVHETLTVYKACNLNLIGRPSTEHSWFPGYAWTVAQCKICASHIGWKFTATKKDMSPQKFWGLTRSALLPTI
- Protocol Notes: Measurement of molecular interactions using surface plasmon resonance (SPR), Biacore T200
- Condition Summary: 25° C., immobilized CRBN truncate, upper limit of measurement 200 μM

Problem: Entry under review: CN(c1ccc([N+](=O)[O-])cc1)C1CCCC(=O)NC1=O (stereo not drawn) . Reported Kd?
Result: ≥ 100 µM

Problem: Give the measured Kd of CC(C)(C)OC(=O)N1CCN(Cc2ccc(N3CCC4(CCCC(=O)NC4=O)C3)nc2)CC1 (stereo not drawn) .
Result: ≥ 100 µM

Problem: Entry Nc1cccc(C2CCCC(=O)NC2=O)c1 (stereo not drawn) has what Kd?
Result: ≥ 100 µM

Problem: Requested field: Kd. Item: Cc1sc2c(c1C)C(c1ccc(Cl)cc1)=N[C@@H](CC(=O)NCCCNc1nccc(N3CC4(CC(=O)N(C5CCC(=O)NC5=O)C4=O)C3)n1)c1nnc(C)n1-2 (stereo partly drawn)
Result: < 50 µM

Problem: Would you kindly share the measured Kd for Cc1sc2c(c1C)C(c1ccc(Cl)cc1)=N[C@@H](CC(=O)NCCCCCCc1ccc(C(=O)N3CCC4(CCCC(=O)NC4=O)C3)cc1Cl)c1nnc(C)n1-2 (stereo partly drawn) ?
Result: < 50 µM

Problem: Which Kd is listed for O=C1CCCC(NS(=O)(=O)c2ccc(Cl)cc2)C(=O)N1 (stereo not drawn) ?
Result: ≥ 100 µM

Problem: Look up Kd: CC(=O)Nc1ccc(N(C)C2CCCC(=O)NC2=O)cc1 (stereo not drawn)
Result: ≥ 100 µM

Problem: // query Kd value for entry O=C1CCCC(c2ccc([N+](=O)[O-])cc2)C(=O)N1 (stereo not drawn)
Result: ≥ 100 µM

Problem: Look at this molecule and give its reported Kd. Cn1c(=O)n(C2CCCC(=O)NC2=O)c(=O)c2ccc(CCC(=O)OC(C)(C)C)cc21 (stereo not drawn)
Result: ≥ 100 µM

Problem: // lookup Kd for CC(C)(C)OC(=O)NCCCCCOc1ccc2nc(N3CC4(CC(=O)N(C5CCC(=O)NC5=O)C4=O)C3)sc2c1 (stereo not drawn)
Result: ≥ 100 µM

Problem: Any idea what Kd was measured for Nc1ccc(N2CCC(N3CCCC(=O)NC3=O)C2=O)cc1 (stereo not drawn) ?
Result: ≥ 100 µM

Problem: Any idea what its Kd is? The molecule is Nc1ccc2nc(N3CCC4(CCCC(=O)NC4=O)C3)sc2c1 (stereo not drawn)
Result: 50 to 100 µM

Problem: What does the record list as Kd for O=C1CCCC2(CCN(c3ccc([N+](=O)[O-])cc3)C2)C(=O)N1 (stereo not drawn) ?
Result: < 50 µM

Problem: Which Kd is reported for this molecule? Cc1sc2c(c1C)C(c1ccc(Cl)cc1)=N[C@@H](CC(=O)NCCc1ccc(S(=O)(=O)N3CC4(CC(=O)N(C5CCC(=O)NC5=O)C4=O)C3)cc1)c1nnc(C)n1-2 (stereo partly drawn)
Result: < 50 µM

Problem: For the molecule shown here, CN(C1CCCC(=O)NC1=O)S(=O)(=O)c1ccc(CCCCCCNC(=O)OC(C)(C)C)cc1 (stereo not drawn) , give the reported Kd.
Result: ≥ 100 µM

* * *

- Subject Of Test: CRBN truncate (318-426) (Homo sapiens (Human), UniProt Q96SW2)
- Protocol Notes: Measurement of molecular interactions using surface plasmon resonance (SPR), Biacore T200
- Condition Summary: 25° C., immobilized CRBN truncate, upper limit of measurement 200 μM
Assay Readout: Kd

Problem: What does the record list as Kd for CC(C)(C)OC(=O)c1cnc(N2CCC3(CCCC(=O)NC3=O)C2)s1 (centres unmarked) ?
Result: ≥ 100 µM

Problem: Requested read-out: Kd. Entry: CC(C)(C)OC(=O)c1ccc(N2CC3(CC(=O)N(C4CCC(=O)NC4=O)C3=O)C2)nc1 (centres unmarked)
Result: 50 to 100 µM

Problem: # get_value(readout='Kd', item= "Cc1sc2c(c1C)C(c1ccc(Cl)cc1)=N[C@@H](CC(=O)NCCCCCCCCNC(=O)CCc1ccc3c(N4CCCC(=O)NC4=O)nn(C)c3c1)c1nnc(C)n1-2" )
Result: < 50 µM

Problem: Name the reported Kd value associated with the molecule CC(C)(C)OC(=O)c1ccc(N2CCN(C3CCCC(=O)NC3=O)C(=O)C2)nc1 (centres unmarked)
Result: ≥ 100 µM

Problem: Which Kd reading was recorded for the molecule O=C1CCCC2(CCN(c3nc4ncccc4s3)C2)C(=O)N1 (centres unmarked) ?
Result: ≥ 100 µM
